Measured hGLP1R cAMP Rel EC50 values are reported for all entries that follow.
# Tested Target: human GLP-1 receptor (GLP-1R) (human, UniProt P43220 24-463)
# Assay Protocol: cell-based or functional assay

# Binder, hGLP1R cAMP Rel EC50
rows = [
    ("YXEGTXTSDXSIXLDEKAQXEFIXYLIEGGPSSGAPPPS (Y-Aib-EGT-αMeF(2F)-TSD-3Pal-SI-αMeF-LDEK((2-[2-(2-Amino-ethoxy)-ethoxy]-acetyl)2-(γ-Glu)-CO-(CH2)18-CO2H)AQ-Aib-EFI-(D-Glu)-YLIEGGPSSGAPPPS-NH2) [Example 181]", "0.0592 nM"),
    ("YXEGTXTSDQSIXLDEKAQXEFIXYLIEGGPSSGAPPPS (Y-Aib-EGT-αMeF(2F)-TSDQSI-αMeF-LDEK((2-[2-(2-Amino-ethoxy)-ethoxy]-acetyl)2-(γ-Glu)-CO-(CH2)18-CO2H)AQ-Aib-EFI-(D-Glu)-YLIEGGPSSGAPPPS-NH2) [Example 187]", "0.0577 nM"),
    ("YXEGTXTSDASIXLDEKAQXEFIXYLIEGGPSSGAPPPS (Y-Aib-EGT-αMeF(2F)-TSDASI-αMeF-LDEK((2-[2-(2-Amino-ethoxy)-ethoxy]-acetyl)2-(γ-Glu)-CO-(CH2)18-CO2H)AQ-Aib-EFI-(D-Glu)-YLIEGGPSSGAPPPS-NH2) [Example 192]", "0.0289 nM"),
]
